Some compounds, each annotated with its measured melting point.
METRIC: melting point (°C)

1) Cc1nccc(C(=O)N2CCn3nc(OCc4ccccc4)cc3C2)n1 :: 134
2) O=C(c1ccccc1)N1CCn2nc(OCc3ccc(F)cc3)cc2C1 :: 131
3) O=C(c1cc(F)cc(F)c1)N1CCn2nc(OCc3ccccc3F)cc2C1 :: 118.1
4) Cc1ccc(COc2cc3n(n2)CCN(C(=O)c2ccc(F)cc2)C3)cc1 :: 156.9
5) COc1cccc(COc2cc3n(n2)CCN(C(=O)c2ccc(F)cc2)C3)c1 :: 120.8
6) N#Cc1cccc(COc2cc3n(n2)CCN(C(=O)c2cccc(F)c2)C3)c1 :: 103.3
7) O=C(c1ccc(F)cc1)N1CCn2nc(OCc3ccncc3)cc2C1 :: 178.8
8) O=C(c1ccc(F)cn1)N1CCn2nc(OCc3ccccc3)cc2C1 :: 123
9) O=C(c1cc(F)ccc1F)N1CCn2nc(OCc3ccccc3)cc2C1 :: 123.7
10) O=C(c1ccc(F)cc1)N1CCn2nc(OCc3ccc(F)cc3)cc2C1 :: 165.4
11) O=C(c1ccccc1F)N1CCn2nc(OCc3ccccc3F)cc2C1 :: 132.4
12) N#Cc1cccc(C(=O)N2CCn3nc(OCc4ccccc4)cc3C2)c1 :: 151.6
13) COc1ccc(COc2cc3n(n2)CCN(C(=O)c2ccc(F)cc2)C3)cc1 :: 108.3
14) O=C(c1ccc(F)cc1F)N1CCn2nc(OCc3ccccc3F)cc2C1 :: 132.8
15) Cc1cccc(COc2cc3n(n2)CCN(C(=O)c2ccc(F)cc2)C3)c1 :: 118.9
16) O=C(c1ccc(F)cc1F)N1CCn2nc(OCc3cccc(F)c3)cc2C1 :: 115.4
17) Cc1ncc(C(=O)N2CCn3nc(OCc4ccccc4)cc3C2)cn1 :: 166.4
18) O=C(c1ncccc1Cl)N1CCn2nc(OCc3ccccc3)cc2C1 :: 135.1
19) Cc1ncccc1C(=O)N1CCn2nc(OCc3ccccc3)cc2C1 :: 129.2
20) O=C(c1ccc(F)c(C(F)(F)F)c1)N1CCn2nc(OCc3ccccc3)cc2C1 :: 135.3
21) O=C(c1ccc(F)cc1)N1CCn2nc(OCc3ccccn3)cc2C1 :: 138.1
